TEST NAME: Acute aerobic and hypoxic cytotoxicity (colony formation)
Format: cell-based, Chinese hamster
CONDITION PARAMETERS: chinese hamster, aerobic v79 cells; aerobic, 1 hour, 37° C.; read-out: concentration to achieve a 10% survival fraction, aerobic
ASSAY READOUT: IC90 at 1 h

Ask: What measured IC90 at 1 h goes with Cl.O=[N+]([O-])c1nccn1CCCNc1c2c(nc3ccccc13)CCCC2 [THNLA-1, hydrochloride] ?
Result: ~475 µM

Cited source: patent US5958947A
